- System: fourth instar yellow fever mosquito larvae
- test: whole plant or invertebrate
- Set-up: species or system Aedes aegypti
- experimental conditions: Aedes aegypti, 24 hr, read-out: Percent Control
Form field: mortality at 0.312 ppm (one value per entry).
reported property: mortality at 0.312 ppm (%)

[[record]]
molecule = "CC[C@H]1CCC[C@H](O[C@H]2CC[C@H](N(C)C)[C@@H](C)O2)[C@@H](C)C(=O)C2=C[C@@H]3[C@@H](C=C(C)[C@@H]4C[C@@H](O[C@@H]5O[C@@H](C)[C@H](OC)[C@@H](OC)[C@H]5OC)C[C@@H]34)[C@@H]2CC(=O)O1 [A83543D]"
reported_property = "mortality at 0.312 ppm"
meas_value = 30

[[record]]
molecule = "CC[C@H]1CCC[C@H](O[C@H]2CC[C@H](N)[C@@H](C)O2)[C@@H](C)C(=O)C2=C[C@@H]3[C@@H](C=C[C@@H]4C[C@@H](O[C@@H]5O[C@@H](C)[C@H](OC)[C@@H](OC)[C@H]5OC)C[C@@H]34)[C@@H]2CC(=O)O1 [A83543C]"
reported_property = "mortality at 0.312 ppm"
meas_value = 60

